target: human H3 receptor (Homo sapiens); construct: expressed in transfected cells; host or cells: HEK-293T cells, membranes; assay: [3H]N-α-methylhistamine radioligand competition binding assay; conditions: 0.3 nM [3H]N-α-methylhistamine; ± SEM
Sequence (Q9Y5N1 whole entry): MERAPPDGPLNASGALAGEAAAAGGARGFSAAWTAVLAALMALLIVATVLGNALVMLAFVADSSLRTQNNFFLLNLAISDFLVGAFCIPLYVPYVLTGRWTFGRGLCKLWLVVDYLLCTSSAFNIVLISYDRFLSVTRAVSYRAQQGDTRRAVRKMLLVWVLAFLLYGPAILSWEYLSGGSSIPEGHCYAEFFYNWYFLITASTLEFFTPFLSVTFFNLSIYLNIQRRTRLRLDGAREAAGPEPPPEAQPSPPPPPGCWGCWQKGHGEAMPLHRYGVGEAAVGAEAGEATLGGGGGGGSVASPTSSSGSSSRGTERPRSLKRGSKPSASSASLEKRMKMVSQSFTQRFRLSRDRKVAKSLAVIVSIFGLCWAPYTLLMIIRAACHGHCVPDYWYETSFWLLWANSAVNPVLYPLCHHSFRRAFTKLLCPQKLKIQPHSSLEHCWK
Listed next: entries and their corresponding Affinity (pKi).
Returns: the value as a bare number; no unit string appended.

Cc1ccc2c(c1)c1c3n2CCN(CC(O)CN2CCN(C)CC2)C3CCC1 (stereo not shown) [Compound 75] ... 5.32
CCN1CCNC(=O)C1CC(=O)N1CCc2[nH]c3c(C)cccc3c2C1 (stereo not shown) [Compound 64] ... 4.06
Cc1ccc2c(c1)c1c3n2CCN(CC(O)CNCc2ccccc2)C3CCC1 (stereo not shown) [Compound 42] ... 4.83

Looking up Cc1nccn1-c1ccc(CNCc2cccc(C#N)c2)cc1F [Compound 20] , I see its Affinity (pKi) listed as 5.37

Looking up CCN(Cc1nc2ccccc2[nH]1)CC1CCCN(CCc2cccc(OC)c2)C1 (stereo not shown) [Compound 9] , I see its Affinity (pKi) listed as 5.76

Looking up CCCCN1CN(CCCN2CCCCC2)Cn2c1nc1ccccc12 [Compound 35] , I see its Affinity (pKi) listed as 5.76

Looking up Cc1ccc(CN2CCCN(C(=O)CCSCc3cn4ccccc4n3)CC2)cc1 [Compound 44] , I see its Affinity (pKi) listed as 5.55
